# TARGET: Carboxy-terminal domain RNA polymerase II polypeptide A small phosphatase 1 (Homo sapiens, UniProt Q9GZU7)
# Sequence (Q9GZU7 whole entry, the tested form may be a part): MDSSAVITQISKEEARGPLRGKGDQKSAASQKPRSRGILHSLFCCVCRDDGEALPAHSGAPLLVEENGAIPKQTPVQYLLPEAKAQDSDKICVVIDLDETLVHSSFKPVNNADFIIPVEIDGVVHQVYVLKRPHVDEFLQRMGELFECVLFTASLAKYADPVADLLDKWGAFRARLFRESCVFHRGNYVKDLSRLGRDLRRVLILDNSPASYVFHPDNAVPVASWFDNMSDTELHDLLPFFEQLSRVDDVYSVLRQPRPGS
# ASSAY PROCEDURE: CTDSP1 inhibitors, concentration-response, biochemical, absorbance readout, ultra-high-throughput screen actives (AID 540297)
# Assay type: functional
Activity calls are given as the source filed them. Cut-off read from the data, not from the text of the source: actives have a measured IC50 and inactives only a lower limit.
PARAMETER: IC50

| COMPOUND | IC50 |
| --- | --- |
| Cc1ccn2c(=O)nc(SCC(=O)NCc3ccccc3Cl)nc2c1 | 8.34 µM (active) |
| CC(c1ccccc1)C1OCC(C[N+]2(C)CCCCC2)O1 (centres undefined) | 2.75 µM (active) |
| Cc1c(C(=O)O)cccc1-c1ccc(/C=N/n2cnnc2)o1 | 6.52 µM (active) |

Req: I would be grateful if you could share the reported IC50 for COc1ccc(/C=N/NC2=NC(=O)C(CC(=O)O)S2)cc1OCc1ccc(Cl)cc1Cl (centres undefined) .
Resp: 4.48 µM (active)

Recorded values, source ChEMBL document CHEMBL1201862.
